assay: small-molecule microarray binders of probe aNog, primary screen, biochemical, biotinylated probe, 635/667 nm fluorescence (AID 1115); conditions: higher = more signal;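 note: probe is biotinylated aNog protein used at 0.15 µg/mL for 1 h at 4 C; z-score combines 667 nm fluorescence of each spot with its signal to noise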
What composite z-score was measured for each of the following?
API doc: respond with a numeric literal and nothing else, no unit.

Please look up its composite z-score: `CC(C)C[C@@H]1NC(=O)[C@@H]2C[C@H](C(=O)O)[C@H](c3cccc(OCCO)c3)N2C1=O`
-0.066

Similarly, `COC(=O)C(CC#Cc1ccc2c(c1)[C@]1(C(=O)N2)[C@H](c2ccc(OCCO)cc2)N2[C@H](c3ccccc3)[C@H](c3ccccc3)OC(=O)[C@H]2[C@@H]1C(=O)Nc1nc2ccccc2s1)C(=O)OC` ?
-0.267

Similarly, `CO[C@H]1O[C@H](CO)[C@@H](OC(=O)Nc2ccc(C(F)(F)F)cc2)[C@H](OC(=O)Nc2ccc3c(c2)OCO3)[C@@H]1OC(=O)Nc1ccc2c(c1)OCO2` ?
1.71

Similarly, `[N-]=[N+]=NCc1ccccc1C[C@]1(C(=O)N2CCCCC2)N=C(c2ccc(OCCCO)cc2)O[C@H]1c1ccccc1N=[N+]=[N-]` ?
1.03

Similarly, `NC(=O)NCC#Cc1ccc2c(c1)[C@]1(C(=O)N2)[C@H](C(=O)Nc2nc3ccccc3s2)[C@H]2C(=O)O[C@H](c3ccccc3)[C@H](c3ccccc3)N2[C@@H]1c1ccccc1OCCO` ?
2.12

Similarly, `COc1ccc(C(=O)Nc2ccc(CN3C(=O)[C@]4(O[C@H](CCO)[C@@H]([Si](C)(C)c5ccc(OC)cc5)[C@@H]4C)c4ccccc43)cc2)cc1` ?
-0.226

Similarly, `COCCOC(=O)N1C(=O)[C@@]2(c3cc(C#CCCO)ccc31)[C@H](C(N)=O)[C@H]1C(=O)O[C@H](c3ccccc3)[C@H](c3ccccc3)N1[C@@H]2c1ccc(O)cc1` ?
0.0107

Similarly, `O=C1O[C@@H](c2ccccc2)[C@@H](c2ccccc2)N2[C@@H](c3ccccc3OCCO)[C@]3(C(=O)Nc4ccc(C#CC5=CCCCC5)cc43)[C@@H](C(=O)N3CCCCCCC3)[C@H]12` ?
3.35

Similarly, `Cc1ccc(S[C@]2(C(=O)NCCCN(C)C)CC(=O)N(Cc3cc(C(F)(F)F)cc(C(F)(F)F)c3)[C@@H]2c2ccc(CO)cc2)cc1` ?
-0.29

Similarly, `CC(C)OC(=O)C=C1C[C@@H](c2ccccn2)O[C@@H](c2ccccn2)O1` ?
-0.457

Similarly, CCCCC(CC)C(O)C1C=CC2C(=O)N(Cc3ccccc3)C(=O)C2N1n1cnnc1 (stereo not drawn) ?
-0.127

Similarly, `COC(=O)[C@@]1(Cc2ccc(OC)cc2)[C@H]2c3cc(C(=O)N4CCCC4)n(CCN4CNCC4=O)c3C[C@H]2CN1C(=O)c1ccccc1` ?
2.43

Similarly, CCCCCN1CC=CC23O[C@@H]4/C=C\CCC(C)OC(=O)C4[C@H]2C(=O)N(C(C)CO)[C@@H]3C1=O (stereo partly drawn) ?
-0.17

* * *

biological target: NADPH oxidase 2 (Homo sapiens); experiment: NOX2-dependent H2O2 signal modulators, primary screen, NOX inhibitor project, cell-based, HEK293-NOX2, PMA-stimulated, Amplex Red fluorescence (AID 1159); details: 45 min, higher = more signal, called active from +8 up or from −8 down; note: test concentration not given here
What z-score was measured for each of the following?
API doc: respond with a numeric literal and nothing else, no unit.

Write down the reported z-score of `COc1ccc([Si](C)(C)[C@@H]2[C@@H](CCO)O[C@]3(C(=O)N(Cc4ccc(N(C=O)c5ccccc5)cc4)c4ccccc43)[C@H]2C)cc1` , test system: NADPH oxidase 2 (Homo sapiens).
1.07

Similarly, `CC(=O)NCCCC[C@@H]1NC(=O)[C@H]2C[C@@H](C(=O)NCCCCCCNC(=O)CS)[C@@H](c3ccc(O)cc3)N2C1=O` ?
0.294

Similarly, [N-]=[N+]=Nc1ccccc1[C@H]1OC(c2ccc(OCCCO)cc2)=N[C@@]1(CCS(=O)(=O)c1ccccc1)C(=O)NCC(O)CO (some centres undefined) ?
1.09

Similarly, `CCCC[C@@H]1C[C@H]1[C@@H](NC(=O)c1cccs1)c1ccc(-c2ccccc2)cc1` ?
-0.939

* * *

What composite z-score was measured for each of the following?
experiment: small-molecule binders of probe aInhba, primary screen, biochemical, small-molecule microarray, 635/667 nm fluorescence (AID 1148); conditions: higher = more signal;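 note: score merges 667nm spot fluorescence with signal-to-noise for antibody binding to printed compounds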
API doc: respond with a numeric literal and nothing else, no unit.

Please look up its composite z-score: `CC(C)C(=C=CC[C@@H](O)c1ccc(OCCO)cc1)C[C@@H](O)c1ccccn1`
-0.231

Similarly, O[C@@H](Cc1ccccc1)[C@H]1C2C=CCCC=C2CN1Cc1cccc(Cl)c1 (some centres not stated) ?
0.0173

Similarly, C[C@H]1C2[C@H](Cc3ccccc3)NC(=O)[C@]23C(=O)N[C@H](Cc2ccccc2)C(=O)N2CCC[C@H]2C(=O)NC/C=C\C/C=C/C3[C@@H]2O[C@]12C (some centres not stated) ?
-0.126

Similarly, `COC(=O)[C@@]1(Cc2ccccc2)[C@H]2c3cc(C(=O)N(C)C)n(Cc4ccsc4Br)c3C[C@H]2CN1C(=O)c1ccccc1` ?
0.0737

Similarly, `CCOC(=O)C1=CC[C@@H](c2ccccc2)N(S(=O)(=O)c2ccc(C)cc2)[C@H]1c1ccccc1C` ?
-0.15

Similarly, `C#C[C@H](O[Si](C#Cc1ccc(Oc2ccccc2)cc1)(C(C)C)C(C)C)c1ccccc1` ?
-0.082

Similarly, `COCCOC(=O)N1C(=O)[C@@]2(c3cc(C#Cc4ccc(OC)cc4)ccc31)[C@H](c1ccc(OCCO)cc1)N1[C@H](c3ccccc3)[C@H](c3ccccc3)OC(=O)[C@H]1[C@@H]2C(=O)N1CCN(c2ncccn2)CC1` ?
0.0464

* * *

assay: HepG2 liver cancer cell viability effects, profiling panel, resazurin fluorescence, 24 h, PK04 Diversity Set (AID 1172); details: higher = more signal; note: test concentration not given here
z-score vs -0.1: at or above is TRUE, below is FALSE.

Exam item: decide whether the reported z-score for C=CCC(OC(C)=O)[C@@H]1[C@@H](N(Cc2ccc(-c3cccc(C(F)(F)F)c3)o2)C(=O)c2ccc(C)cc2)c2cc(OCCCO)ccc2N1C(=O)Cc1ccc2ccccc2c1 (stereo partly drawn) is at least -0.1.
TRUE

Similarly, `O=C1[C@@]23C=C(Br)[C@H](C[C@@H]2CCOC3)[C@@]12CO2` ?
TRUE

Similarly, `CCCC#C[Si](O[C@H](CC)c1cn(Cc2cccc(Cl)c2)nn1)(C(C)C)C(C)C` ?
TRUE

Similarly, Cc1ccccc1C(O)C1C=CC2C(=O)N(c3ccccc3)C(=O)C2N1Nc1ccc(C(C)C)cc1 (stereo not drawn) ?
FALSE

Similarly, `COc1ccc(/C=C/C=O)cc1` ?
FALSE

Similarly, `C=CC[C@]1(C(=O)NCCCOC)N=C(c2ccc(OCCCO)cc2)O[C@H]1c1ccccc1CN=[N+]=[N-]` ?
TRUE

Similarly, O=C(OCc1ccccc1)C1=CCC2c3[nH]c4ccccc4c3C(=O)C1N2S(=O)(=O)c1ccccc1[N+](=O)[O-] (stereo not drawn) ?
FALSE

Similarly, `CC(C)N1C(=O)c2ccccc2[C@](C)(C(=O)NCCN2CCOCC2)[C@@H]1c1ccc(CO)cc1` ?
TRUE

* * *

assay: small-molecule microarray binders of probe aDKK1, primary screen, biochemical, biotinylated probe, 635/667 nm fluorescence (AID 1099); details: higher = more signal;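 note: score merges 667nm spot fluorescence with signal to noise across triplicate slides; reference of the scale not given here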
assay readout: composite z-score
API doc: respond with a numeric literal and nothing else, no unit.

Please look up its composite z-score: `CC(C)C[C@@H]1NC(=O)[C@@H]2C[C@H](C(=O)O)[C@H](c3cccc(OCCO)c3)N2C1=O`
-0.212

Similarly, `C=CC[C@@]1(C(=O)NCCN2CCOCC2)N=C(c2ccc(OCCCO)cc2)O[C@@H]1c1ccccc1N=[N+]=[N-]` ?
1.09

Similarly, `[N-]=[N+]=NCc1ccccc1C[C@]1(C(=O)N2CCCCC2)N=C(c2ccc(OCCCO)cc2)O[C@H]1c1ccccc1N=[N+]=[N-]` ?
1.1

Similarly, `COC(=O)[C@@]1(Cc2ccc(F)cc2)[C@H]2c3cc(C(=O)N(C)C)n(Cc4cc(F)c(F)c(F)c4)c3C[C@H]2CN1C(=O)c1ccccc1` ?
0.9

* * *

tested on: Sonic hedgehog protein (Shh); test: small-molecule binders of Shh protein, primary screen, biochemical, small-molecule microarray, 635/667 nm fluorescence (AID 1151); conditions: small-molecule microarray binding, 635 nm fluorescence; higher = more signal;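 note: Shh protein binding to compounds spotted on small-molecule microarray slides; score combines spot fluorescence intensity with signal-to-noise across triplicate slides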
assay readout: composite z-score

Please look up its composite z-score: `NC(=O)NCC#Cc1ccc2c(c1)[C@]1(C(=O)N2)[C@H](c2ccccc2OCCO)N2[C@H](c3ccccc3)[C@H](c3ccccc3)OC(=O)[C@H]2[C@@H]1C(=O)Nc1nc2ccccc2s1`
0.812

Similarly, `Cc1ccc(S[C@]2(C(=O)NC3CC3)CC(=O)N(Cc3ccccc3)[C@@H]2c2ccc(CO)cc2I)cc1` ?
-0.517

Similarly, Cc1ccccc1C(O)C1C=CC2C(=O)N(c3ccccc3)C(=O)C2N1Nc1ccc(C(C)C)cc1 (stereo not drawn) ?
0.214

Similarly, `COCCOC(=O)N1C(=O)[C@@]2(c3ccccc31)[C@H](c1ccc(O)cc1)N1[C@H](c3ccccc3)[C@H](c3ccccc3)OC(=O)[C@H]1[C@@H]2C(=O)Nc1nc2ccccc2s1` ?
1.13

Similarly, `COC(=O)C(CC#Cc1ccc2c(c1)[C@]1(C(=O)N2)[C@H](c2ccc(OCCO)cc2)N2[C@H](c3ccccc3)[C@H](c3ccccc3)OC(=O)[C@H]2[C@@H]1C(=O)Nc1nc2ccccc2s1)C(=O)OC` ?
0.588

Similarly, `COc1ccc(/C=C/C=O)cc1` ?
1.6

Similarly, `O=C1c2ccccc2[C@](Cc2ccccc2I)(C(=O)NCCN2CCOCC2)[C@H](c2ccc(CO)cc2)N1C1CCCCC1` ?
1.52

Similarly, `CO[C@H]1O[C@H](CO)[C@@H](OC(=O)Nc2ccc(Oc3ccccc3)cc2)[C@H](OC(=O)Nc2ccc3c(c2)OCO3)[C@H]1OC(=O)Nc1ccc2c(c1)OCO2` ?
1.41
